# Target or test system: T1, human CD3e/g (human, UniProt P07766 23-126; P09693 23-116)
# T1 construct: Bought soluble protein; also called hCD3e/g; human CD3e/g (Acro CDD-C52W4)
# T1 sequence (P07766 23-126, chain 1 of 2): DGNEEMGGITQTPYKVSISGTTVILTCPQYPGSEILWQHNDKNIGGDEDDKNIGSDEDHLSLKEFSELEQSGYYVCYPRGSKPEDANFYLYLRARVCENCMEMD
# T1 sequence (P09693 23-116, chain 2 of 2): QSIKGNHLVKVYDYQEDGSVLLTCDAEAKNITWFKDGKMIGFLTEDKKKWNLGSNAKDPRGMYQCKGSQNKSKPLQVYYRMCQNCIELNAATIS
# Assay notes: SPR (Carterra LSA), mAb on chip
Could you please mark 1 for values of Kd below 10 nM and -1 for values at or above it?

# example entries with known answers
{"Binder": "mAb 203 (antibody, V domains shown, VH and VL only) VH: QVQLVESGGGVVQPGGSLRLSCAASGFTFRGYGMHWVRQAPGKGLEWVAIIYYNGRKTYYAESVKGRFTISRDNSKNTLSLQMNSLRVEDTAVYYCTAGQGYNWFDPWGQGTLVTVSS VL: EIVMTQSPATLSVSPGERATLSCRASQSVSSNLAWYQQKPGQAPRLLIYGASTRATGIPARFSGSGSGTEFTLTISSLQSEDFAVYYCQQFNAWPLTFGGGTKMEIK", "Assigned label": 1}
{"Binder": "mAb 221 (antibody, V domains shown, VH and VL only) VH: QVQLVESGGGVVQPGGSLRLSCAASGFTFSGYGMHWVRQAPGKGLEWVAIIWYNGRKTYYAESVKGRFTISRDNSKNTLSLQMNSLRVEDTAVYYCTAGQGYNWFDPWGQGTLVTVSS VL: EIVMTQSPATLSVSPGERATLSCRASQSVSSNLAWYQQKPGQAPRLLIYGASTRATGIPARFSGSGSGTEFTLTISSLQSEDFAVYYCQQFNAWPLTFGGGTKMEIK", "Assigned label": -1}
{"Binder": "mAb 78 (antibody, V domains shown, VH and VL only) VH: EVQLVESGGGLVQPGGSLRLSCAASGFTFSSYWMSWVRQAPGKGLEWVANIKQDGSEKYYVDSVKGRFTISRDNAKNSLYLQMNSLRAEDTAVYYCARDNSPSFYWYFDLWGRGTLVTVSS VL: DIQMTQSPSTLSASVGDRVTITCRASQSLSRWLAWYQQKPGKAPKLLIYKASSLESGVPSRFSGSGSGTEFTLTISSLQPDDFATYYCQQYYTYSRTFGQGTKVEIK", "Assigned label": -1}

Problem: Bench note: check whether mAb 43 (antibody, V domains shown, VH and VL only) VH: QAQLVQSGSELKKPGASVKVSCKASGYTFTKHSMNWVRQAPGQGLEWMGWINTNTGNPMYAQGFTGRFVFSLDTSVTTAYLQISSLKAEDTAVYYCAREGDYDFWSGFFNFDYWGQGTLVTVSS VL: DIQMTQSPSSLSASVGDRVTITCRASQGIRNDLGWYQQKPGKAPKRLIYAASSLQSGVPSRFSGSGSGAEFTLTISSLQPEDFATYYCLQHNSYPRTFGQGTKVEIK shows Kd below 10 nM
Result: -1

Problem: Below 10 nM on Kd? Entry mAb 219 (antibody, V domains shown, VH and VL only) VH: QEQLVESGGGVVQPGGSLRLSCAASGFMFSGYGMHWVRQAPGKGLEWVAIIWYNGRKTYYTESVKGRFTISRDNSKNTLSLQMNSLRVEDTAVYYCTAGQGYNWFDPWGQGTLVTVSS VL: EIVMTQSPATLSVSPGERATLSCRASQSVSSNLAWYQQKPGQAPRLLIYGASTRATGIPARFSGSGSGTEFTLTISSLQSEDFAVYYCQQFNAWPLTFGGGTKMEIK
Result: 1

Problem: Please check: Kd for mAb 79 (antibody, V domains shown, VH and VL only) VH: QVQLVQSGAEVKKPGASVKVSCKASGYIVTGYYMHWVRQAPGHGLEWMGWINPNSGGTNFAQNFQGRVTMTRDTSISTFYMDLNRLTSDDTAVYYCARGGAPVSYWFFDLWGRGTLVTVSS VL: DIQMTQSPSSLSASVGDRVTITCRASQNINSYLNWYHQKPGKAPKVLIYNTSTLKSGVPSRFSGSGSGTYFTLTISSLQPEDFATFYCQQSHSTPFTFGPGTKVDIK , strictly under 10 nM or not?
Result: -1

Problem: Bench note: check whether mAb 127 (antibody, V domains shown, VH and VL only) VH: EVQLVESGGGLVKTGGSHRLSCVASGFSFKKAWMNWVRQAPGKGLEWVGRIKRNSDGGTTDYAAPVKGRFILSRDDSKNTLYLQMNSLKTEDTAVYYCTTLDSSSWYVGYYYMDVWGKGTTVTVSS VL: DIQMTQSPSSVSASVGDRVTITCRASQDINNWLAWYQQKPGKAPKILIYTASNLQSGVPSRFSGSGSGTDFTLTISTLQPEDFATYFCQQAHGLPITFGQGTRLEIK shows Kd below 10 nM
Result: -1

Problem: Does the reported Kd of mAb 106 (antibody, V domains shown, VH and VL only) VH: QVQLVESGGGVVQPGRSLRLSCAASGFTFRSYGMHWVRQAPGKGLEWVAIIWYNGNKKDYVDSVKGRFTISRDNSKNTLYLQMNSLRAEDTALYYCARGPGYNWFDPWGQGTLVTVSS VL: DIQMTQSPPSLSASVGDRVTITCRASQRISSYLNWYQQKPGKAPKLLIYAASSLQSGVPSRFSGSGSGTDFTLTISSLQPEDFATYYCQQSDSFPLTFGGGTKVEII stay below 10 nM?
Result: -1

Problem: Below 10 nM on Kd? Entry mAb 99 (antibody, V domains shown, VH and VL only) VH: QGQLVESGGGVVQPGRSLRLSCAASGFTFRGFGMHWVRQAPGKGLEWVAIIYYDGKNKYYADSVKGRFTISRDNSKNTLYLQMNSLRAEDTAVYYCAKGGGYNWFDPWGQGTLVTVSS VL: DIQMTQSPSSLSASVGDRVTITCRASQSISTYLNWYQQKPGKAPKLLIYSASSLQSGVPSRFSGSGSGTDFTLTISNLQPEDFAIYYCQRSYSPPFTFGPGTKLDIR
Result: -1
